# maps each entry to its IC50
experiment: in vitro; conditions: Chinese hamster, Cytotoxicity (IC50) CHO 72 h

{"columns": ["MOL", "IC50"],
 "data": [
  ["COc1cc(OC)c2oc(COP(=O)(NCCCl)NCCCl)cc2c1", "15.2 µM"],
  ["COc1cc(OC)c2oc(COP(=O)(NCCBr)NCCBr)cc2c1", "20.3 µM"]
]}

====

test system: CHO/CYP1B1 cells; assay: cells; conditions: Cricetulus griseus, 72 h, read-out: Cytotoxicity (IC50) CHO/CYP1B1 72 h
pIC50: −log10 of the molar value.

{"columns": ["MOL", "pIC50"],
 "data": [
  ["COc1cc(OC)c2oc(COP(=O)(NCCCl)NCCCl)cc2c1", 8.05],
  ["COc1cc(OC)c2oc(COP(=O)(NCCBr)NCCBr)cc2c1", 8.40]
]}
